- assayMethodText: NCI Yeast Anticancer Drug Screen. Data for the rad50 strain (AID 155);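 also: 0% = growth of vehicle-only cultures of the same strain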
- testParameters: S. cerevisiae rad50 strain growth inhibition; at 5.0 µM (retest, dose inferred, filed as 0.5); active compounds read high
This is part of a sample that, as a whole, favours compounds with a hit. Of some 79,000 tested, about 15% had one in any assay.
Below: a set of entries, each annotated with reported growth inhibition.
// note: answer is a bare numeric in %

Known growth inhibition results, listed for orientation:
CC(=O)OC1CCC2(C)C(CCC3C4=CCC(C5COC(=O)C5)C4(C)CCC32)C1 (stereo not given) :: -1
COC1CCC2(C)C(=CCC3C4CC(OC(C)=O)CC4(C)CCC32)C1 (stereo not given) :: 0
O=C1CC(O)C=C1Nc1ccc(Cl)cc1 (stereo not given) :: 3

Lookup result for Cc1ccc2c(c1C)-c1c(ccc(C)c1C)C(=O)C2=O ; measured growth inhibition: 13

Lookup result for CC1(c2ccccc2)OC(=O)C=CC1=O (stereo not given) ; measured growth inhibition: 15

Lookup result for CC(=O)c1c(O)c(C)c(O)c2c1OC1=CC(=O)c3c(C)noc3C12C (stereo not given) ; measured growth inhibition: -1

Lookup result for CC(=O)c1ccc2sc3ccccc3c2c1 ; measured growth inhibition: -92

Lookup result for O=c1cc2cccccc-2cc1O ; measured growth inhibition: -132

Lookup result for NC(=O)c1ncn(C2OC(CO)C(O)C2O)c1O (stereo not given) ; measured growth inhibition: 20

Lookup result for Oc1ccc(C23CC4CC(CC(C4)C2)C3)cc1 ; measured growth inhibition: -148
